assay: AUC(0 to infinity) in BALB/c mouse at 2.5 mg/kg, iv measured for 6 hrs by LC-MS/MS analysis; type: ADME, organism-based; conditions: in vivo
attribute-measured: AUC(0-inf) (ng·h/mL)
All answers are understood in ng·h/mL, so give the number only.

Ask | // lookup AUC(0-inf) for C[N+]1([O-])CC[C@H](c2c(O)cc(O)c3c(=O)cc(/C=C/c4ccccc4Cl)oc23)[C@H](O)C1 (stereo partly specified)
Reply | 346

###

assay: AUC(0 to t) in BALB/c mouse at 5 mg/kg, iv measured for 6 hrs by LC-MS/MS analysis; type: ADME, organism-based; conditions: in vivo
attribute-measured: AUC(0-t) at 6 h

Ask | // lookup AUC(0-t) at 6 h for COc1cc(O)c2c(=O)cc(/C=C/c3c(F)cccc3Cl)oc2c1[C@H]1CC[N+](C)([O-])C[C@H]1O (stereo partly specified)
Reply | 956 ng·h/mL

###

Could you please report measured GI50 at 48 h for the items listed next?
experiment: Antiproliferative activity against HEK293 cells assessed as cell growth inhibition incubated for 48 hrs by MTT assay; format: toxicity, cell-based; details: human

Ask | // lookup GI50 at 48 h for C[N+]1([O-])CC[C@H](c2c(O)cc(O)c3c(=O)cc(/C=C/c4cccc(Cl)c4)oc23)[C@H](O)C1 (stereo partly drawn)
Reply | > 100 µM

Ask | Ok, now C[N+]1([O-])CC[C@H](c2c(O)cc(O)c3c(=O)cc(/C=C/c4c(Cl)cccc4Cl)oc23)[C@H](O)C1 (stereo partly drawn)
Reply | > 100 µM

Ask | Ok, now Cc1cc(=O)c2c(O)cc(O)c([C@H]3CC[N+](C)([O-])C[C@H]3O)c2o1 (stereo partly drawn)
Reply | > 100 µM

Ask | Ok, now C[N+]1([O-])CC[C@H](c2c(O)cc(O)c3c(=O)cc(/C=C/c4ccc(Cl)cc4)oc23)[C@H](O)C1 (stereo partly drawn)
Reply | 46.3 µM

Ask | Ok, now CCOc1cc(O)c2c(=O)cc(/C=C/c3c(F)cccc3Cl)oc2c1[C@H]1CC[N+](C)([O-])C[C@H]1O (stereo partly drawn)
Reply | > 100 µM

Ask | Ok, now C[N+]1([O-])CC[C@H](c2c(O)cc(O)c3c(=O)cc(/C=C/c4c(F)cccc4Cl)oc23)[C@H](O)C1 (stereo partly drawn)
Reply | > 100 µM

Ask | Ok, now C[N+]1([O-])CC[C@H](c2c(O)cc(O)c3c(=O)cc(/C=C/c4ccccc4Br)oc23)[C@H](O)C1 (stereo partly drawn)
Reply | 95.2 µM

Ask | Ok, now C[N+]1([O-])CC[C@H](c2c(O)cc(O)c3c(=O)cc(/C=C/c4ccccc4F)oc23)[C@H](O)C1 (stereo partly drawn)
Reply | > 100 µM

###

assay: AUC(0 to t) in BALB/c mouse at 2.5 mg/kg, iv measured for 6 hrs by LC-MS/MS analysis; assay type: ADME, organism-based; settings: in vivo
attribute-measured: AUC(0-t) at 6 h
Be sure to follow the number with its unit.

Ask | // lookup AUC(0-t) at 6 h for C[N+]1([O-])CC[C@H](c2c(O)cc(O)c3c(=O)cc(/C=C/c4ccccc4Cl)oc23)[C@H](O)C1 (stereo partly specified)
Reply | 341 ng·h/mL

###

test: Clearance in BALB/c mouse at 30 mg/kg, po measured for 6 hrs by LC-MS/MS analysis; assay type: ADME, organism-based; settings: in vivo
attribute-measured: CL/F (mL/min/kg)
All answers are understood in mL/min/kg, so give the number only.

Ask | // lookup CL/F for COc1cc(O)c2c(=O)cc(/C=C/c3c(F)cccc3Cl)oc2c1[C@H]1CC[N+](C)([O-])C[C@H]1O (some centres not stated)
Reply | 1250

Ask | Ok, now C[N+]1([O-])CC[C@H](c2c(O)cc(O)c3c(=O)cc(/C=C/c4ccccc4Cl)oc23)[C@H](O)C1 (some centres not stated)
Reply | 953

###

assay: Metabolic stability in human liver microsomes assessed as drug metabolism at 10 uM measured after 30 mins in presence of NADPH by HPLC analysis; type: ADME, Microsome; details: read-out: Drug metabolism
attribute-measured: metabolised at 0.5 h, 10 µM (%)
All answers are understood in %, so give the number only.

Ask | // lookup metabolised at 0.5 h, 10 µM for COc1cc(O)c2c(=O)cc(/C=C/c3c(F)cccc3Cl)oc2c1[C@H]1CC[N+](C)([O-])C[C@H]1O (stereo partly specified)
Reply | 16

###

molecular target: CDK9/cyclin T1 (Homo sapiens, UniProt P50750); test: Inhibition of CDK9/cyclin T1 (unknown origin) by ADP-Glo assay; format: protein-complex assay
Sequence (O60563 whole entry): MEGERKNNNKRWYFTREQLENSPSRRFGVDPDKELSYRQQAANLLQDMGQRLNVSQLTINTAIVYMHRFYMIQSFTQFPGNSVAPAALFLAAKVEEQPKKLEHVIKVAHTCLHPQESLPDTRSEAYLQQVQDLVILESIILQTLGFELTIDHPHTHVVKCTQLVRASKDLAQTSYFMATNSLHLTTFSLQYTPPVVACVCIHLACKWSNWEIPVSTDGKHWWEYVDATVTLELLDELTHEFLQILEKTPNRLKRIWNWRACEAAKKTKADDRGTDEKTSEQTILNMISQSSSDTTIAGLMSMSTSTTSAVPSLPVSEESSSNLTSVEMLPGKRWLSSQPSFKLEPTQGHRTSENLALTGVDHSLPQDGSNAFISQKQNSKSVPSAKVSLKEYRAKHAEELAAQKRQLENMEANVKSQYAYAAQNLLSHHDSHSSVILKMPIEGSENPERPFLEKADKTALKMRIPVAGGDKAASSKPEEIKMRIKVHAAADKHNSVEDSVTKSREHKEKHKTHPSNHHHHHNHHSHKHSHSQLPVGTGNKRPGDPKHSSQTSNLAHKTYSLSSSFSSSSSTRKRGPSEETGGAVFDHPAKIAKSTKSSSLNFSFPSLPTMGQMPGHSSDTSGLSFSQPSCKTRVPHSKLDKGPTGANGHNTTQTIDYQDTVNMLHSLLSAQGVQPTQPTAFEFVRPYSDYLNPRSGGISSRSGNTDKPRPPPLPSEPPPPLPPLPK
Sequence (P50750 whole entry): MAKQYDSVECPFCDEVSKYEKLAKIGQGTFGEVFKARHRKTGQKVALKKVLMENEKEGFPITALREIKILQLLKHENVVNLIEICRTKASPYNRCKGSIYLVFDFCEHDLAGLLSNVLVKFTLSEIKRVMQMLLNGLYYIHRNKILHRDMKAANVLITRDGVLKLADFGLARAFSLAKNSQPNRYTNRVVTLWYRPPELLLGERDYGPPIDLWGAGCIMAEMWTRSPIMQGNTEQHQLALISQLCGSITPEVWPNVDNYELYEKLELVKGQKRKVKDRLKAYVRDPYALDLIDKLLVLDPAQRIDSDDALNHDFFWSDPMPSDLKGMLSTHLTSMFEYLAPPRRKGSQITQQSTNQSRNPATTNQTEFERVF
attribute-measured: IC50 (nM)
All answers are understood in nM, so give the number only.

Ask | // lookup IC50 for C[N+]1([O-])CC[C@H](c2c(O)cc(O)c3c(=O)cc(/C=C/c4ccccc4F)oc23)[C@H](O)C1 (some centres not stated)
Reply | 676

Ask | Ok, now C[N+]1([O-])CC[C@H](c2c(O)cc(O)c3c(=O)cc(/C=C/c4ccccc4)oc23)[C@H](O)C1 (some centres not stated)
Reply | 1990

Ask | Ok, now C[N+]1([O-])CC[C@H](c2c(O)cc(O)c3c(=O)cc(/C=C/c4ccccc4Br)oc23)[C@H](O)C1 (some centres not stated)
Reply | 231

Ask | Ok, now C[N+]1([O-])CC[C@H](c2c(O)cc(O)c3c(=O)cc(/C=C/c4cccc(Cl)c4)oc23)[C@H](O)C1 (some centres not stated)
Reply | 3710

Ask | Ok, now C[N+]1([O-])CC[C@H](c2c(O)cc(O)c3c(=O)cc(/C=C/c4ccc(Cl)cc4)oc23)[C@H](O)C1 (some centres not stated)
Reply | 3850

Ask | Ok, now C[N+]1([O-])CC[C@H](c2c(O)cc(O)c3c(=O)cc(/C=C/c4c(F)cccc4Cl)oc23)[C@H](O)C1 (some centres not stated)
Reply | 1430

Ask | Ok, now Cc1cc(=O)c2c(O)cc(O)c([C@H]3CC[N+](C)([O-])C[C@H]3O)c2o1 (some centres not stated)
Reply | 7650

###

Could you please report measured inhibition at 10 µM for the items listed next?
test system: MIA PaCa-2; assay: Antiproliferative activity against human MIA PaCa-2 cells assessed as cell growth inhibition at 10 uM incubated for 48 hrs by MTT assay relative to control; type: functional
All answers are understood in %, so give the number only.

Ask | // lookup inhibition at 10 µM for `CN1CC[C@H](c2c(O)cc(O)c3c(=O)cc(/C=C/c4c(Cl)cccc4Cl)oc23)[C@H](O)C1`
Reply | 82.5

Ask | Ok, now C[N+]1([O-])CC[C@H](c2c(O)cc(O)c3c(=O)cc(/C=C/c4ccccc4)oc23)[C@H](O)C1 (stereo partly drawn)
Reply | 21.5

Ask | Ok, now C[N+]1([O-])CC[C@H](c2c(O)cc(O)c3c(=O)cc(/C=C/c4cc(Cl)cc(Cl)c4)oc23)[C@H](O)C1 (stereo partly drawn)
Reply | 11.3

Ask | Ok, now C[N+]1([O-])CC[C@H](c2c(O)cc(O)c3c(=O)cc(/C=C/c4ccc(Cl)cc4Cl)oc23)[C@H](O)C1 (stereo partly drawn)
Reply | 41.2

Ask | Ok, now C[N+]1([O-])CC[C@H](c2c(O)cc(O)c3c(=O)cc(/C=C/c4c(Cl)cccc4Cl)oc23)[C@H](O)C1 (stereo partly drawn)
Reply | 53.6

Ask | Ok, now C[N+]1([O-])CC[C@H](c2c(O)cc(O)c3c(=O)cc(/C=C/c4ccc(Cl)cc4)oc23)[C@H](O)C1 (stereo partly drawn)
Reply | 44.2

Ask | Ok, now COc1cc(O)c2c(=O)cc(/C=C/c3c(F)ccc(Cl)c3F)oc2c1[C@H]1CC[N+](C)([O-])C[C@H]1OC (stereo partly drawn)
Reply | 39

Ask | Ok, now C[N+]1([O-])CC[C@H](c2c(O)cc(O)c3c(=O)cc(/C=C/c4ccccc4I)oc23)[C@H](O)C1 (stereo partly drawn)
Reply | 38.1

###

molecular target: Cyclin-dependent kinase 7/ cyclin H (Homo sapiens) (UniProt P51946+P50613); test: Inhibition of CDK7/cyclin H (unknown origin) at 10 uM by ADP-Glo assay relative to control; format: protein-complex assay
Could you please report measured inhibition for the items listed next?
Be sure to follow the number with its unit.

Ask | // lookup inhibition for COc1cc(O)c2c(=O)cc(/C=C/c3c(F)ccc(F)c3Cl)oc2c1[C@H]1CC[N+](C)([O-])C[C@H]1O (stereo not given in full)
Reply | 51.4%

Ask | Ok, now C[N+]1([O-])CC[C@H](c2c(O)cc(O)c3c(=O)cc(/C=C/c4ccccc4Br)oc23)[C@H](O)C1 (stereo not given in full)
Reply | 49.4%

Ask | Ok, now COc1cc(O)c2c(=O)cc(/C=C/c3c(F)ccc(Cl)c3F)oc2c1[C@H]1CC[N+](C)([O-])C[C@H]1OC (stereo not given in full)
Reply | 50.3%

Ask | Ok, now C[N+]1([O-])CC[C@H](c2c(O)cc(O)c3c(=O)cc(/C=C/c4ccc(Cl)cc4Cl)oc23)[C@H](O)C1 (stereo not given in full)
Reply | 49.6%

Ask | Ok, now C[N+]1([O-])CC[C@H](c2c(O)cc(O)c3c(=O)cc(/C=C/c4c(F)cccc4Cl)oc23)[C@H](O)C1 (stereo not given in full)
Reply | 48.5%

Taken from ChEMBL document CHEMBL5620385.
